Each entry below carries its reported relative viability.
# Tested on: LCLC-97TM1
# test protocol: relative viability (nuclei count vs DMSO), 5 days (fraction); higher = more cells survive
# experimental conditions: first compound 6.325 µM

| compound | relative viability |
| --- | --- |
| COCC1(CO)C(=O)C2CCN1CC2 (configuration not stated) [PRIMA-1MET] + Cc1cc(Nc2cc(N3CCN(C)CC3)nc(Sc3ccc(NC(=O)C4CC4)cc3)n2)n[nH]1 [Tozasertib] (partner 0.1 µM) | 0.204 |
| COCC1(CO)C(=O)C2CCN1CC2 (configuration not stated) [PRIMA-1MET] + COc1cccc2cc(-c3nc([C@H]4CC[C@H](C(=O)O)CC4)n4ncnc(N)c34)[nH]c12 [OSI-027] (partner 0.5 µM) | 0.364 |
| COCC1(CO)C(=O)C2CCN1CC2 (configuration not stated) [PRIMA-1MET] + CC(C)C[C@H](NC(=O)[C@H](Cc1ccccc1)NC(=O)c1cnccn1)B(O)O [Bortezomib] (partner 0.002 µM) | 0.47 |
| COCC1(CO)C(=O)C2CCN1CC2 (configuration not stated) [PRIMA-1MET] + CCNC(=O)c1noc(-c2cc(C(C)C)c(O)cc2O)c1-c1ccc(CN2CCOCC2)cc1 [Luminespib] (partner 0.01 µM) | 0.841 |
| COCC1(CO)C(=O)C2CCN1CC2 (configuration not stated) [PRIMA-1MET] + O=C(CCCCCCC(=O)Nc1ccccc1)NO [Vorinostat] (partner 1 µM) | 0.791 |
| COCC1(CO)C(=O)C2CCN1CC2 (configuration not stated) [PRIMA-1MET] + CS(=O)(=O)CCNCc1ccc(-c2ccc3ncnc(Nc4ccc(OCc5cccc(F)c5)c(Cl)c4)c3c2)o1 [Lapatinib] (partner 2 µM) | 1.08 |
| COCC1(CO)C(=O)C2CCN1CC2 (configuration not stated) [PRIMA-1MET] + N=C(N)NC(=N)NCCc1ccccc1 [Phenformin] (partner 250 µM) | 0.448 |
